- SUBJECT_OF_TEST: HLA-A*02 (human)
- ASSAY_DETAILS: UV peptide-exchange ELISA, yield grade
Assign peptide exchange yield to each entry below.

# BINDER, MEASURED_QUANTITY, VALUE_OBSERVED
measured = [
    ("AVGPVHNSV [AVGPVHNSV (SEQ ID NO: 76)]", "peptide exchange yield", "20 to 49%"),
]

Parameters: items (list). Returns: peptide exchange yield for each item.
1. SLAPATPEV [SLAPATPEV (SEQ ID NO: 250)]
2. SQIPAQPSV [SQIPAQPSV (SEQ ID NO: 63)]
3. LLFSRLCGA [LLFSRLCGA (SEQ ID NO: 51)]
4. KLDGNELDL [KLDGNELDL (SEQ ID NO: 127)]
5. FLERGLESA [FLERGLESA (SEQ ID NO: 113)]
6. ALSVLRLAL [ALSVLRLAL (SEQ ID NO: 251)]

Response given:
50 to 75%
20 to 49%
≥ 75%
50 to 75%
20 to 49%
50 to 75%

Challenge: Form field: reported peptide exchange yield of FVDPNTQEKV [FVDPNTQEKV (SEQ ID NO: 22)]
Response given: 20 to 49%

Values were extracted from patent US20170165339A1.
